tgt: T1, gp130 on HepG2 B6 cells (UniProt P40189 23-918, limits assumed)
T1 sequence (looked up): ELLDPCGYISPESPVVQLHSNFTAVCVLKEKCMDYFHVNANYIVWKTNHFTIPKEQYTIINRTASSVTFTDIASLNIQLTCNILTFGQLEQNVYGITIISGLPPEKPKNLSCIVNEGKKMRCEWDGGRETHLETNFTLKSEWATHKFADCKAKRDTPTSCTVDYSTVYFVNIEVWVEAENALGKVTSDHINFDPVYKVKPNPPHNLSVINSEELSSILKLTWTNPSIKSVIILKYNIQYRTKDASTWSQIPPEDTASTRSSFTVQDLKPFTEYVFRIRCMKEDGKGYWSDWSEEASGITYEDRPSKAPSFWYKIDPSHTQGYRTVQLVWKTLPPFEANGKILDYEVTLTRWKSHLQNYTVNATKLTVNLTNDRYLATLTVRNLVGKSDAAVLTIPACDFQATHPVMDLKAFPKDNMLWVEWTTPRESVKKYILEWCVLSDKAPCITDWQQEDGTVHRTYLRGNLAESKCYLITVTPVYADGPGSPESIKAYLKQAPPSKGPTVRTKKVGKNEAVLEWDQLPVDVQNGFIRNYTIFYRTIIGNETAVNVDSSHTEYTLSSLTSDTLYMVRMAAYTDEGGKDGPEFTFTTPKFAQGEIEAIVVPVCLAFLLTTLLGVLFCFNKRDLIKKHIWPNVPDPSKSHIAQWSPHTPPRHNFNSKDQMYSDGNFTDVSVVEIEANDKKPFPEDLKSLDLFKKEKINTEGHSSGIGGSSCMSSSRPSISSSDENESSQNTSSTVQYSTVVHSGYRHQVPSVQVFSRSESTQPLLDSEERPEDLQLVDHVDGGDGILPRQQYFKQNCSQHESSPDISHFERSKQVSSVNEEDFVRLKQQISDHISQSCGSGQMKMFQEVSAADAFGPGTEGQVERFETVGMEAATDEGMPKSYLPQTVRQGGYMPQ
assay: cell-based or functional assay
observed property: sPAP HepG2 B6 assay: Expt 1 % (EC50 as % of wild type EC50)
Your reply should be a number followed by the unit it is expressed in.

OSM-GST mutant D26A (ligand, not shown: a dimerising Fc or GST; large carriers; small tags and cut ends, Alanine mutant of m4; also called (27)D26A; 27 D26A) AAIGSCSKEYRVLLGQLQKQTDLMQATSRLLDPYIRIQGLDVPKLREHCRERPGAFPSEETLRGLGRRGFLQTLNATLGCVLHRLADLEQRLPKAQDLERSGLNIEDLEKLQMARPNILGLRNNIYCMAQLLDNSDTAEPTKAGRGASQPPTPTPASDAFQRKLEGCRFLHGYHRFMHSVGRVFSKWGESPNRSRR	81%
OSM-GST mutant L17A (ligand, Alanine mutant of m4; also called (10)L17A; 10 L17A; not shown: Its linker is left out) AAIGSCSKEYRVLLGQAQKQTDLMQDTSRLLDPYIRIQGLDVPKLREHCRERPGAFPSEETLRGLGRRGFLQTLNATLGCVLHRLADLEQRLPKAQDLERSGLNIEDLEKLQMARPNILGLRNNIYCMAQLLDNSDTAEPTKAGRGASQPPTPTPASDAFQRKLEGCRFLHGYHRFMHSVGRVFSKWGESPNRSRR	301%

Attention now turns to another entry.
Reported sPAP HepG2 B6 assay: Expt 1 % (EC50 as % of wild type EC50) ( wild type OSM-GST fusion (ligand, pGEX-derived fusion; also called wt OSM-GST; GST-hOSM; not shown: glutathione S-transferase (GST) encoded by modified pGEX-3X (Pharmacia), N-terminal, up to the Factor Xa site region sho) AAIGSCSKEYRVLLGQLQKQTDLMQDTSRLLDPYIRIQGLDVPKLREHCRERPGAFPSEETLRGLGRRGFLQTLNATLGCVLHRLADLEQRLPKAQDLERSGLNIEDLEKLQMARPNILGLRNNIYCMAQLLDNSDTAEPTKAGRGASQPPTPTPASDAFQRKLEGCRFLHGYHRFMHSVGRVFSKWGESPNRSRR ) = 100%

// provenance: patent US6706266
